- assay name: Tail Flick test (analgetic activity)
- Assay type: in vivo
- measurement conditions: sc.; read-out: Tail Flick ED50
measurement type: ED50 (mg/kg)
Numeric only. Scale: mg/kg

These solved cases illustrate the format of a correct answer.
molecule	scale unit	ED50
CN1CC[C@]23c4c5ccc(O)c4O[C@H]2C(=NNC(N)=O)CC[C@@]3(O)[C@H]1C5 [Oxymorphone semicarbazone, 14-OH-dihydromorphinone semicarbazone]	mg/kg	0.9
COc1ccc2c3c1O[C@H]1C(=NNC(N)=S)CC[C@H]4[C@@H](C2)N(C)CC[C@]314 [Dihydrocodeinone thiosemicarbazone]	mg/kg	0.6

Name the recorded ED50 of the item COc1ccc2c3c1O[C@H]1C(=NNC(N)=O)CC[C@H]4[C@@H](C2)N(C)CC[C@]314 [Dihydrocodeinone semicarbazone, Dihydrocodeinonesemicarbazone] in your answer.
0.35

Find the measured ED50 of COc1ccc2c3c1O[C@H]1C(=NNc4ccccc4)CC[C@H]4[C@@H](C2)N(C)CC[C@]314 [Dihydrocodeinone phenylhydrazone] and report it.
2.3

For the molecule CN1CC[C@]23c4c5ccc(O)c4O[C@H]2C(=NNc2ccc([N+](=O)[O-])cc2[N+](=O)[O-])CC[C@H]3[C@H]1C5 [Dihydromorphinone dinitrophenylhydrazone] , give its reported ED50.
0.18

Report ED50, nothing else, for this molecule: CN1CC[C@]23c4c5ccc(O)c4O[C@H]2C(=NNc2ccc([N+](=O)[O-])cc2[N+](=O)[O-])CC[C@@]3(O)[C@H]1C5 [Oxymorphone dinitrophenylhydrazone]
0.27

Return reported ED50. Input molecule: COc1ccc2c3c1O[C@H]1C(=NNc4ccccc4)CC[C@@]4(O)[C@@H](C2)N(C)CC[C@]314 [Oxycodone phenylhydrazone, 14-OH-dihydrocodeinone phenylhydrazone]
1.2

Give reported ED50 value for COc1ccc2c3c1O[C@H]1C(=NNC(N)=O)CC[C@@]4(O)[C@@H](C2)N(C)CC[C@]314 [Oxycodone semicarbazone, 14-OH-dihydrocodeinonesemicarbazone]
0.45

Specify reported ED50 for the molecule shown: CN1CC[C@]23c4c5ccc(O)c4O[C@H]2C(=NNC(N)=O)CC[C@H]3[C@H]1C5 [Dihydromorphinone semicarbazone]
0.13
